Molecular target: UniProtKB P08913
Sequence (P08913 whole entry): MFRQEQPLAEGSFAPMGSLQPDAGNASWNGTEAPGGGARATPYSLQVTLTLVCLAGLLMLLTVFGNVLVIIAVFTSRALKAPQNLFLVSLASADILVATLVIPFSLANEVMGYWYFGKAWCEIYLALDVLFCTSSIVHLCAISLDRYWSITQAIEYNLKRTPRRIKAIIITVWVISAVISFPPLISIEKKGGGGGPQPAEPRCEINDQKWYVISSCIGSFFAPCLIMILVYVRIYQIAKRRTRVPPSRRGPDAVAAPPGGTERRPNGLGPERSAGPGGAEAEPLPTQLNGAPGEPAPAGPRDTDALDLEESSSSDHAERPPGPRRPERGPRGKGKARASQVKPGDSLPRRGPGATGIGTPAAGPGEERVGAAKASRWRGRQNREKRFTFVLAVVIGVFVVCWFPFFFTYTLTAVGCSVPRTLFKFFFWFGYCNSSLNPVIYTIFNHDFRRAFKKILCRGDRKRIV
Measured AC50 values are reported for all entries that follow.

>  <compound>
OCCN1CCN(CC/C=C2/c3ccccc3Sc3ccc(Cl)cc32)CC1

>  <target system>
UniProtKB P08913

>  <AC50>
7.34 µM

$$$$
>  <compound>
CC#CCn1c(N2CCC[C@@H](N)C2)nc2c1c(=O)n(Cc1nc(C)c3ccccc3n1)c(=O)n2C

>  <target system>
UniProtKB P08913

>  <AC50>
> 10 µM

$$$$
>  <compound>
C[C@]1(COc2ccc(N3CCC(Oc4ccc(OC(F)(F)F)cc4)CC3)cc2)Cn2cc([N+](=O)[O-])nc2O1

>  <target system>
UniProtKB P08913

>  <AC50>
> 10 µM

$$$$
>  <compound>
CCN(CC)C(=O)C1CN2CCc3cc(OC)c(OC)cc3C2CC1OC(C)=O (stereo unspecified) [BENZQUINAMIDE]

>  <target system>
UniProtKB P08913

>  <AC50>
3.03 µM

$$$$
>  <compound>
CC(C)CC(N(C)C)C1(c2ccc(Cl)cc2)CCC1 (stereo unspecified)

>  <target system>
UniProtKB P08913

>  <AC50>
> 10 µM

$$$$
>  <compound>
NCCCC(O)(P(=O)(O)O)P(=O)(O)O

>  <target system>
UniProtKB P08913

>  <AC50>
> 10 µM

$$$$
>  <compound>
CC(=O)OCC[N+](C)(C)C

>  <target system>
UniProtKB P08913

>  <AC50>
> 10 µM

$$$$
>  <compound>
COc1ccc(C(CN(C)C)C2(O)CCCCC2)cc1 (stereo unspecified)

>  <target system>
UniProtKB P08913

>  <AC50>
> 10 µM

$$$$
>  <compound>
CC1(C)C(C=C(Cl)Cl)C1C(=O)OCc1cccc(Oc2ccccc2)c1 (stereo unspecified)

>  <target system>
UniProtKB P08913

>  <AC50>
> 10 µM

$$$$
>  <compound>
COC1=C(OC)C(=O)C(CCCCCCCCCCO)=C(C)C1=O

>  <target system>
UniProtKB P08913

>  <AC50>
> 10 µM

$$$$
>  <compound>
N#C[C@@H]1CCCN1C(=O)CNC12CC3CC(CC(O)(C3)C1)C2

>  <target system>
UniProtKB P08913

>  <AC50>
> 10 µM

$$$$
>  <compound>
COc1ccc2c(c1)[C@]13CCCC[C@@H]1[C@H](C2)N(C)CC3

>  <target system>
UniProtKB P08913

>  <AC50>
11.2 µM

$$$$
>  <compound>
O=C(Nc1nc(-c2cc(Cl)cs2)c(N2CCN(C3CCCCC3)CC2)s1)c1cnc(N2CCC(C(=O)O)CC2)c(Cl)c1

>  <target system>
UniProtKB P08913

>  <AC50>
> 10 µM

$$$$
>  <compound>
CCCN(CCC)CCc1cccc2c1CC(=O)N2

>  <target system>
UniProtKB P08913

>  <AC50>
12 µM

$$$$
>  <compound>
COCCCOc1ccnc(C[S+]([O-])c2nc3ccccc3[nH]2)c1C (stereo unspecified)

>  <target system>
UniProtKB P08913

>  <AC50>
> 10 µM

$$$$
>  <compound>
CCc1oc2ccccc2c1C(=O)c1cc(Br)c(O)c(Br)c1

>  <target system>
UniProtKB P08913

>  <AC50>
> 10 µM

$$$$

src = ChEMBL document CHEMBL5291721
